The entries below are paired with their reported minimum inhibitory concentration.
System: Escherichia coli
Experiment: minimum inhibitory concentration (MIC)
Conditions: isolate (source animal id): 100

Known results for compounds:
NC[C@@H]1O[C@H](O[C@H]2[C@@H](O)[C@H](O[C@@H]3[C@@H](O)[C@H](N)C[C@H](N)[C@H]3O[C@H]3O[C@H](CN)[C@@H](O)[C@H](O)[C@H]3N)O[C@@H]2CO)[C@H](N)[C@@H](O)[C@@H]1O [Neomycin] ... ≤ 4 µg/mL
CS(=O)(=O)c1ccc([C@@H](O)[C@@H](CF)NC(=O)C(Cl)Cl)cc1 [Florfenicol] ... > 8 µg/mL

In: Value wanted: minimum inhibitory concentration (Escherichia coli) of entry CC1(C)S[C@@H]2[C@H](NC(=O)[C@H](N)c3ccccc3)C(=O)N2[C@H]1C(=O)O [Ampicillin]
Out: 2 µg/mL
